Target: KSP motor domain (Homo sapiens, UniProt P52732)
Assay: biochemical
Conditions: KSP inhibitory activity, end-point assay; class symbols (Table 1); read-out: IC50
MEASUREMENT LABEL: IC50

>  <COMPOUND>
COC(=O)[C@H]1CCCCN1C(=O)c1cc2cc3c(nc2s1)CCC(C(C)(C)C)C3 (some centres unmarked) [Example 90]

>  <MEASURED TARGET>
KSP motor domain (Homo sapiens, UniProt P52732)

>  <RESULT>
> 10 µM

$$$$
>  <COMPOUND>
CC(C)(C)C1CCc2nc3sc(C(=O)N[C@H](CO)Cc4ccccc4)cc3cc2C1 (some centres unmarked) [Example 159]

>  <MEASURED TARGET>
KSP motor domain (Homo sapiens, UniProt P52732)

>  <RESULT>
> 10 µM

$$$$
>  <COMPOUND>
CC(C)(C)C1CCc2nc3sc(C(=O)N[C@H](CN)c4ccc(C#N)cc4)cc3cc2C1 (some centres unmarked) [Example 216]

>  <MEASURED TARGET>
KSP motor domain (Homo sapiens, UniProt P52732)

>  <RESULT>
< 0.1 µM

$$$$
>  <COMPOUND>
C[C@H]1CNCCN1C(=O)Nc1cccc([C@@H](CN)NC(=O)c2cc3cc4c(nc3s2)CC[C@@H](C(C)(C)C)C4)c1 [Example 276]

>  <MEASURED TARGET>
KSP motor domain (Homo sapiens, UniProt P52732)

>  <RESULT>
< 0.1 µM

$$$$
>  <COMPOUND>
CC(C)C1Cc2cc3cc(C(N)=O)sc3nc2CC1C (centres unmarked) [Example 209]

>  <MEASURED TARGET>
KSP motor domain (Homo sapiens, UniProt P52732)

>  <RESULT>
0.1 to 1 µM

$$$$
>  <COMPOUND>
CCC(C)(C)C1CCc2nc3sc(C(N)=O)cc3c(O)c2C1 (centres unmarked) [Example 116]

>  <MEASURED TARGET>
KSP motor domain (Homo sapiens, UniProt P52732)

>  <RESULT>
> 10 µM

$$$$
>  <COMPOUND>
Cc1cc(C(=O)Nc2cccc([C@@H](CN)NC(=O)c3cc4cc5c(nc4s3)CC[C@@H](C(C)(C)C)C5)c2)nn1C [Example 244]

>  <MEASURED TARGET>
KSP motor domain (Homo sapiens, UniProt P52732)

>  <RESULT>
< 0.1 µM

$$$$
>  <COMPOUND>
COC(=O)[C@H]1C[C@@H](O)CN1C(=O)c1cc2cc3c(nc2s1)CCC(C(C)(C)C)C3 (some centres unmarked) [Example 92]

>  <MEASURED TARGET>
KSP motor domain (Homo sapiens, UniProt P52732)

>  <RESULT>
> 10 µM

$$$$

----------
Biological target: KSP motor domain (Homo sapiens, UniProt P52732)
Sequence (P52732 18-359 limits assumed): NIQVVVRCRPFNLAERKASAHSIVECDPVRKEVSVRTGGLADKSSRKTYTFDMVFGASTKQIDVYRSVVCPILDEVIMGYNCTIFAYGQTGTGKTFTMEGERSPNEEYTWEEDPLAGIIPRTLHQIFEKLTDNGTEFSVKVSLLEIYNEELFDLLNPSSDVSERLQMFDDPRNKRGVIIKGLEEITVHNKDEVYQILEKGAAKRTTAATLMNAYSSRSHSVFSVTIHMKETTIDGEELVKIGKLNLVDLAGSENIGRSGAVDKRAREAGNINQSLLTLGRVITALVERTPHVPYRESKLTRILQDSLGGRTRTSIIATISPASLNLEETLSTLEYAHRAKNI
Test: biochemical
Settings: KSP inhibitory activity, end-point assay; class symbols (Table 1); read-out: IC50

>  <COMPOUND>
CC(C)(C)C1CCc2nc3sc(C(N)=O)c(N)c3cc2C1 (stereo not drawn)

>  <IC50>
1000 to 10000 nM

$$$$
>  <COMPOUND>
Cc1ncnc(C)c1C(=O)Nc1ccc([C@@H](CN)NC(=O)c2cc3cc4c(nc3s2)CC[C@@H](C(C)(C)C)C4)cc1

>  <IC50>
< 100 nM

$$$$
>  <COMPOUND>
CC(C)(C)C1CCCc2nc3sc(C#N)c(N)c3cc2C1 (stereo not drawn)

>  <IC50>
< 100 nM

$$$$
>  <COMPOUND>
CC(C)(C)[C@@H]1CCc2nc3sc(C(=O)N[C@H](CN)c4cccc(NC(=O)c5nsc(Cl)c5Cl)c4)cc3cc2C1 [Example 253A]

>  <IC50>
100 to 1000 nM

$$$$
>  <COMPOUND>
CC(C)(C)C1CCc2nc3sc(CNCc4cc5cc6c(nc5s4)CCC(C(C)(C)C)C6)cc3cc2C1 (stereo not drawn)

>  <IC50>
1000 to 10000 nM

$$$$
>  <COMPOUND>
CC(C)(C)C1CCc2nc3sc(C(=O)NCCN4CCCCC4)cc3cc2C1 (stereo not drawn)

>  <IC50>
1000 to 10000 nM

$$$$
>  <COMPOUND>
CC(C)(C)C1CCc2nc3sc(C(=O)N[C@H](CN)c4cccc([N+](=O)[O-])c4)cc3cc2C1 (stereo partly drawn)

>  <IC50>
< 100 nM

$$$$
>  <COMPOUND>
N#Cc1sc2nc3c(cc2c1N)CC1(CC3)OCCO1

>  <IC50>
> 10000 nM

$$$$
>  <COMPOUND>
CC(C)(C)C1CCc2nc3sc(C#N)nc3cc2C1 (stereo not drawn)

>  <IC50>
1000 to 10000 nM

$$$$
>  <COMPOUND>
COC(=O)[C@@H]1C[C@@H](O)CN1C(=O)c1cc2cc3c(nc2s1)CCC(C(C)(C)C)C3 (stereo partly drawn)

>  <IC50>
1000 to 10000 nM

$$$$
>  <COMPOUND>
CC(C)(C)C1CCc2nc3sc(S(N)(=O)=O)cc3cc2C1 (stereo not drawn)

>  <IC50>
100 to 1000 nM

$$$$
>  <COMPOUND>
CC(C)(C)C1CCc2nc3sc(C(=O)Nc4ccncc4N)cc3cc2C1 (stereo not drawn) [Example 226E]

>  <IC50>
100 to 1000 nM

$$$$
>  <COMPOUND>
CC(C)(C)C1CCc2nc3sc(-c4ncc(CO)[nH]4)cc3cc2C1 (stereo not drawn)

>  <IC50>
1000 to 10000 nM

$$$$
>  <COMPOUND>
CC(C)(C)C1CCCc2nc3sc(C(N)=O)cc3cc2C1 (stereo not drawn)

>  <IC50>
< 100 nM

$$$$
>  <COMPOUND>
CC(C)(C)[C@@H]1CCc2nc3sc(C(=O)N[C@H](CN)c4cccc(NCc5cccnc5)c4)cc3cc2C1

>  <IC50>
< 100 nM

$$$$
>  <COMPOUND>
CC(C)CC1CCc2nc3sc(C#N)c(N)c3cc2C1 (stereo not drawn)

>  <IC50>
1000 to 10000 nM

$$$$
>  <COMPOUND>
CC(=O)Nc1cc2cc3c(nc2s1)CCC(C(C)(C)C)C3 (stereo not drawn)

>  <IC50>
1000 to 10000 nM

$$$$
>  <COMPOUND>
CC(C)(C)C1CCc2nc3sc(C(=O)NC(CO)C(N)=O)cc3cc2C1 (stereo not drawn)

>  <IC50>
100 to 1000 nM

$$$$
